measured_on: HCV NS5B RdRp genotype 1b (Hepatitis C virus genotype 1b, UniProt Q9WMX2)
Construct: The protein was expressed with an 18 amino acid C-terminal truncation to enhance the solubility; made in house; host or cells: E. coli BL21(DE3), pET21a vector
Sequence (Q9WMX2 2420-2992): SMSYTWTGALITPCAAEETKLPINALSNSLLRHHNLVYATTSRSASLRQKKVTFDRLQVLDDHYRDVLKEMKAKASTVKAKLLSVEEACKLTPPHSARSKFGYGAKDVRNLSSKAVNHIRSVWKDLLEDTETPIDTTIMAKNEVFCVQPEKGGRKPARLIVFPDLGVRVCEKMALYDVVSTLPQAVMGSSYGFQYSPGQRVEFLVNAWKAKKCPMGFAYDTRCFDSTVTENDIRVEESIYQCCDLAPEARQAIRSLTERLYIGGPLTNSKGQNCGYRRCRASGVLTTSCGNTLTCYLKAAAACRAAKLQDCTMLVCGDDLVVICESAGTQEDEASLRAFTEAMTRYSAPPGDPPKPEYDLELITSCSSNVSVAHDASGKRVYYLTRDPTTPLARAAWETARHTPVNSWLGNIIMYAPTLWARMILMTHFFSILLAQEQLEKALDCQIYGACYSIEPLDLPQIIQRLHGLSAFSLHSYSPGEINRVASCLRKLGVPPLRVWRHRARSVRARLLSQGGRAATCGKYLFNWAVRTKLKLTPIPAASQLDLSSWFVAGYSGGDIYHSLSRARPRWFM
protocol_notes: HCV NS5B RdRp enzyme assay (standard / modified)
Assay type: biochemical
Procedure: HCV NS5B RdRp Cloning, Expression, and Purification. The cDNA encoding the NS5B protein of HCV, genotype 1b, was cloned into the pET21a expression vector. The protein was expressed with an 18 amino acid C-terminal truncation to enhance the solubility. […] HCV RdRp genotype 1b assays were run in a final volume of 60 μl in 96 well plates (Corning 3600). […] Plates were read on a Packard Top Count NXT after >1 hr incubation at room temperature. […]
quantity: IC50

{"compound": "COc1ccc2c(c1)C1CC1(C(=O)N1C3CCC1CN(Cc1ccccc1)C3)Cn1c-2c(C2CCCCC2)c2ccc(C(=O)NS(=O)(=O)N(C)C)cc21 (stereo not drawn) [drawing 33]", "measured_on": "HCV NS5B RdRp genotype 1b (Hepatitis C virus genotype 1b, UniProt Q9WMX2)", "IC50": "1 to 500 nM"}
{"compound": "COc1ccc2c(c1)C1CC1(C(=O)N1C3CCC1CNC3)Cn1c-2c(C2CCCCC2)c2ccc(C(=O)NS(=O)(=O)N(C)C)cc21 (stereo not drawn) [drawing 34]", "measured_on": "HCV NS5B RdRp genotype 1b (Hepatitis C virus genotype 1b, UniProt Q9WMX2)", "IC50": "1 to 500 nM"}

Here is another compound to look at.
Inquiry: Item CCCCS(=O)(=O)NC(=O)c1ccc2c(C3CCCCC3)c3n(c2c1)CC1(C(=O)N2C4CCC2CN(C)C4)CC1c1cc(OC)ccc1-3 (stereo not drawn) with HCV NS5B RdRp genotype 1b (Hepatitis C virus genotype 1b, UniProt Q9WMX2) - IC50?
Reply text: 1 to 500 nM
